The measured values listed here are drawn from patent US20230270764A1.

system: BV2 microglial cells; assay: LPS-induced IL-1β release by BV2 microglia cell cultures (ELISA); type: cell-based, murine; conditions: Mus musculus, BV-2, read-out: CBD IC50, LPS-induced IL-1β release, Example 4; addition of 1 µM kaempferol
Measurement label: IC50

Ask | Identify IC50 associated with the compound C=C(C)[C@@H]1CCC(C)=C[C@H]1c1c(O)cc(CCCCC)cc1O [CBD, cannabidiol]
Reply | 3.3 µM

====

tested on: BV2 microglial cells; assay: LPS-induced IL-1β release by BV2 microglia cell cultures (ELISA); type: cell-based, murine; settings: Mus musculus, BV-2, read-out: CBD IC50, LPS-induced IL-1β release, Example 5; addition of 1 µM quercetin
Measurement label: IC50
Reply with the number and its unit after it.

Ask | Identify IC50 associated with the molecule C=C(C)[C@@H]1CCC(C)=C[C@H]1c1c(O)cc(CCCCC)cc1O
Reply | 2.1 µM
